Hello, the source for this data is PubChem BioAssay (NCI), in case you need it.

Test system: DU-145 prostate
Test: NCI tumour cell line growth inhibition, 48 h
Could you please report measured TGI for the items listed next?
Answers are plain numbers, in µM.

CC[C@@H](/C=C\CCC1(C[C@@H](N)CCC=C(C)C)OCCO1)O[Si](C(C)C)(C(C)C)C(C)C
40.3

Answer for every listed entry: what is its TGI? The entries follow.
1. O=C(Nc1nc(-c2ccc(Cl)cc2)nc2c1sc(=S)n2-c1ccccc1)C(F)(F)F
2. CC1OC(O[C@H]2CC[C@]3(C=O)[C@H]4CC[C@]5(C)[C@H](C6=CC(=O)OC6)CC[C@]5(O)[C@@H]4C=C[C@]3(O)C2)CC(O)C1O (some centres undefined)
3. CC(C)CCC(=O)[C@@H](C)[C@H]1[C@@H](OC2OCC(O)C(O)C2NS(C)(=O)=O)C[C@H]2[C@@H]3CC=C4C[C@@H](O)CC[C@]4(C)[C@H]3CC[C@]12C (some centres undefined)
4. CC[C@]12C=CCN3CC[C@@]4(c5ccc(OC)cc5N(C)[C@H]4[C@@](O)(C(=O)OC)[C@@H]1OC(=O)CCC(=O)N[C@H](Cc1c[nH]c4ccccc14)C(=O)OC)[C@@H]32
5. C/C=C(/C)C(=O)OC1C=C(CO)C(=O)C(OC(=O)C(C)(O)C(C)Cl)C1C(C)C (centres undefined)

Reply:
1: 25.3; 2: 0.442; 3: 20.4; 4: 20.3; 5: 2.4

Answer for every listed entry: what is its TGI? The entries follow.
1. COc1ccc2c(-c3ccc(O)cc3)c(Oc3ccc(Cl)cc3)c(=O)oc2c1
2. CC1=CC(C)(C)Nc2ccc(CSc3ccccc3)cc21

Reply:
1. 24.7
2. 71.5
